test: self-splicing fitness, log relative to wild type (ln ratio); higher = more splicing; Tetrahymena group I intron in knt gene, E. coli kanamycin selection, DiMSum; sequences stand for … in CUCUCU…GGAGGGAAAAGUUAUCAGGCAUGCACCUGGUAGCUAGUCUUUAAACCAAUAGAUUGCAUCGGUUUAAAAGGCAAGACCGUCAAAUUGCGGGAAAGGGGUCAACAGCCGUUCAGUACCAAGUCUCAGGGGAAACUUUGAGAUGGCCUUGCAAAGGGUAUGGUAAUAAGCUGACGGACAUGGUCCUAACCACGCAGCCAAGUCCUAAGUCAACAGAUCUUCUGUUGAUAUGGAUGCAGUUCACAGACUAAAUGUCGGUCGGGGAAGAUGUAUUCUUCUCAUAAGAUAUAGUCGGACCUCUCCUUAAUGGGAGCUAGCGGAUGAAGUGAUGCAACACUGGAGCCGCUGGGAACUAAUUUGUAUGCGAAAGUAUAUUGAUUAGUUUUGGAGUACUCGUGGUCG; conditions: 37 °C;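 note: selection with 25 µg/mL kanamycin versus none on LB agar overnight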
Recorded self-splicing fitness (ln) values for a group of sequences are listed next.
readout.name: self-splicing fitness (ln)

1. CUCCAGCAAUAUUACGUCUU : -2.88
2. ACAAAGCAAUAUUACGACAC : -0.962
3. AUGUAGCAAUAUUACGGUAG : -3.33
4. CCUAAGCAAUAUUACGGGCA : -2.85
5. UUAUAGCAAUAUUACGGGCG : -1
6. CAGUAGCAAUAUUACGGGUA : -1.01
7. GUAAAGCAAUAUUACGACAG : -2.22
8. AAACAGCAAUAUUACGCAGU : -1.44
9. ACACAGCAAUAUUACGCUCG : 0.194
10. GUUGAGCAAUAUUACGCCUU : -1.78
11. GAACAGCAAUAUUACGUGAA : -0.396
12. CACGAGCAAUAUUACGUCAU : -2.49
13. ACAUAGCAAUAUUACGGCAC : -1.2
14. UGGCAGCAAUAUUACGCAAU : -1
15. CUCGAGCAAUAUUACGUUCC : -2.63
16. GAGAAGCAAUAUUACGGUUG : -1.99
17. CGUAAGCAAUAUUACGUGAC : -2.33
18. AUAAAGCAAUAUUACGACUG : -0.454
19. ACCGAGCAAUAUUACGUUUU : -2.59
20. GGUAAGCAAUAUUACGACCU : -1.93
21. AACAAGCAAUAUUACGAAGC : -2.83
22. UUUAAGCAAUAUUACGCUAG : -0.671
23. GGUCAGCAAUAUUACGGCAG : -0.497
24. GUGGAGCAAUAUUACGCCCU : -1.87
25. ACGCAGCAAUAUUACGGCCA : 0.161
26. ACGUAGCAAUAUUACGUGUC : -2.48
27. UGUUAGCAAUAUUACGUAAC : -1.55
28. UGGUAGCAAUAUUACGUGGG : -2.14
29. CGCGAGCAAUAUUACGGGGA : -2.41
30. GAGUAGCAAUAUUACGUAAG : 0.0773
31. UACUAGCAAUAUUACGGGGG : -1.31
32. UUGCAGCAAUAUUACGGUCU : -1.26
33. CCAUAGCAAUAUUACGGAAG : -1.67
34. CACGAGCAAUAUUACGCGUA : -1.28
35. CGUAAGCAAUAUUACGAUAG : -0.661
36. CGUCAGCAAUAUUACGGGAU : -2.66
37. CAAGAGCAAUAUUACGUCUA : -1.56
38. AUCUAGCAAUAUUACGCGGG : -2.12
